SYSTEM_UNDER_TEST: Human recombinant DHX9 protein (Homo sapiens (Human))
ASSAY_EXPLANATION: DHX9 ATPase assay (ADP-Glo)
Assay type: biochemical
MEASUREMENT_LABEL: DHX9 Biochemical Max Inhibition
Give bare numbers.

Examples from the recorded data:
[[record]]
chemical_structure = "Cc1sc(C(=O)Nc2cc(Cl)cc(NS(C)(=O)=O)c2)cc1-c1ncc(OC2CN(C)C2)cn1"
quantitative_result = 72.7

[[record]]
chemical_structure = "Cc1sc(C(=O)Nc2cc(Cl)cc(NS(C)(=O)=O)c2)nc1-c1ccc(F)cn1"
quantitative_result = 55.9

[[record]]
chemical_structure = "Cc1cc(C(=O)Nc2cc(Cl)cc(NS(C)(=O)=O)c2)cn1-c1ncc(Cl)cn1"
quantitative_result = 70.1


Here is the next item to consider.
Task item: Suppose we examine the compound CC(=O)N1CCC(c2cnc(-c3cc(C(=O)Nc4cc(Cl)cc(NS(C)(=O)=O)c4)sc3C)nc2)CC1 ; what DHX9 Biochemical Max Inhibition value has been reported?
Reply: 93.6

* * *

SYSTEM_UNDER_TEST: Human recombinant DHX9 protein (Homo sapiens (Human), UniProt Q08211)
Sequence (Q08211 whole entry): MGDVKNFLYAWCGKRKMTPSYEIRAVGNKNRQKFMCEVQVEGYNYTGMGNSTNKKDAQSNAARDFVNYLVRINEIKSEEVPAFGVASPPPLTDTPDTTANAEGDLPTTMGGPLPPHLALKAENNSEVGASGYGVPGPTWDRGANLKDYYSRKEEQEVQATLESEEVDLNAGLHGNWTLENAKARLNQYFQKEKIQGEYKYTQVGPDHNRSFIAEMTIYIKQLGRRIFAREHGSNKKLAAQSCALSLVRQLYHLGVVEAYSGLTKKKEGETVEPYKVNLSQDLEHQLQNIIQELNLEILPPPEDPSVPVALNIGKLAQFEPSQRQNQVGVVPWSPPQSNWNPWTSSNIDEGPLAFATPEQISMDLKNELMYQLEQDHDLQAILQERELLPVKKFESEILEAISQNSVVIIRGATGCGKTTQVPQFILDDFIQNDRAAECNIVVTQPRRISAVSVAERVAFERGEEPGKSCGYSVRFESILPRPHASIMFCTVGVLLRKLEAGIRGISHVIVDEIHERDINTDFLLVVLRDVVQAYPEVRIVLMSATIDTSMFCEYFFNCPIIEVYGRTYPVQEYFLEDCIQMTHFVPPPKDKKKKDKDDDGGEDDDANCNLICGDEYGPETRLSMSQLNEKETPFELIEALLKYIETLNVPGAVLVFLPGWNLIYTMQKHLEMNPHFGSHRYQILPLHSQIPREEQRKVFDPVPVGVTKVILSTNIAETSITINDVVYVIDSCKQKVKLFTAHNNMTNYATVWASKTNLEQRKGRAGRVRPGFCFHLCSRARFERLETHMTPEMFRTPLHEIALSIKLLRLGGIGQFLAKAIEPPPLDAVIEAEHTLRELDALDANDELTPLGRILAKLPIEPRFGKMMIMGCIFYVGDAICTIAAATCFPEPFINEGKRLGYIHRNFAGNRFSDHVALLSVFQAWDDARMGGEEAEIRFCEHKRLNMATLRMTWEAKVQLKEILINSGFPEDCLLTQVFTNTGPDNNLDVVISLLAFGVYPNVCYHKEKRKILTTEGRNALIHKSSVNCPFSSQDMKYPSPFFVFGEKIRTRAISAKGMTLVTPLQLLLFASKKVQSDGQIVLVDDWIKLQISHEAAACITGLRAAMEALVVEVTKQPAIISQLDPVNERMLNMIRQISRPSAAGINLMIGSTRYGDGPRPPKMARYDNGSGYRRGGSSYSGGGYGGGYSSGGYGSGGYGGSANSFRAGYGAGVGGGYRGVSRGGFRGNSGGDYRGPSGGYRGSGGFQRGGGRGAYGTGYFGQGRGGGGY
ASSAY_EXPLANATION: DHX9 ATPase assay (ADP-Glo)
CONDITION_LABEL: read-out: DHX9 Biochemical Inflection Point
pIC50: −log10 of the molar value.
Binary call on pIC50: Y from 8 upward, N beneath that.

Worked cases, answers included:
[[record]]
chemical_structure = "Cn1cc(C(=O)Nc2cc(Cl)cc(NS(C)(=O)=O)c2)cc1-c1ncc(N2CC3(C2)CC(F)(F)C3)cc1F"
category_label = "N"

[[record]]
chemical_structure = "Cc1sc(C(=O)Nc2cc(Cl)cc(NS(C)(=O)=O)c2)cc1-c1ccc(F)cn1"
category_label = "Y"

[[record]]
chemical_structure = "Cc1sc(C(=O)Nc2cc(Br)cc(NS(C)(=O)=O)c2)cc1-c1ccccc1O"
category_label = "N"

[[record]]
chemical_structure = "CCS(=O)(=O)Nc1cc(Cl)cc(NC(=O)c2cc(C)n(-c3ccc(N4CCOCC4)cn3)c2)c1"
category_label = "Y"

[[record]]
chemical_structure = "CS(=O)(=O)Nc1cc(Cl)cc(NC(=O)c2cnn(-c3ncccc3-c3cncc(F)c3)c2)c1"
category_label = "Y"


Task item: pIC50 >= 8 for CC(=O)N1CC2(CC(n3cc(C(=O)Nc4cc(Cl)cc(NS(C)(=O)=O)c4)cn3)C2)C1 ?
Reply: N

Task item: Please answer likewise for Cn1cc(C(=O)Nc2cc(Cl)cc(NS(C)(=O)=O)c2)cc1-c1ncncc1OCc1cc(F)cc(F)c1
Reply: N

Task item: Please answer likewise for CCS(=O)(=O)Nc1cc(F)cc(NC(=O)c2cc(-c3ccccn3)cs2)c1
Reply: N

Task item: Please answer likewise for CCS(=O)(=O)Nc1cc(Cl)cc(NC(=O)c2cc(C)n(-c3ncc(F)cc3Cl)c2)c1
Reply: N

Task item: Please answer likewise for Cc1cnc(-c2cc(C(=O)Nc3cc(Cl)cc(NS(C)(=O)=O)c3)cn2C)c(F)c1
Reply: N

Task item: Please answer likewise for Cn1cc(C(=O)Nc2cc(Cl)cc(NS(C)(=O)=O)c2)cc1-c1ncc(N2CCCC(F)(F)C2)cc1F
Reply: N

Task item: Please answer likewise for CS(=O)(=O)Nc1cc(Cl)cc(NC(=O)c2cc(C(=O)N3CCN(CC(F)(F)F)CC3)n(-c3ccccn3)c2)c1
Reply: N

* * *

SYSTEM_UNDER_TEST: Human recombinant DHX9 protein (Homo sapiens (Human))
ASSAY_EXPLANATION: DHX9 ATPase assay (ADP-Glo)
Assay type: biochemical
CONDITION_LABEL: read-out: DHX9 Biochemical Inflection Point
Dear colleague, classification is by IC50, with ranges listed here: lo (below 10 nM), med (10 nM to below 100 nM), hi (100 nM or more)

[[record]]
compound = "CCS(=O)(=O)Nc1cc(Cl)cc(NC(=O)c2cc(-c3ncc(F)cc3OC)c(C)s2)c1 [Example 354]"
category_label = "med"

[[record]]
compound = "Cc1cccnc1-c1ccc(C(=O)Nc2cc(Cl)cc(NS(C)(=O)=O)c2)s1 [Example 386]"
category_label = "hi"


Task item: Into which bin does this compound go? COc1cnn(-c2csc(C(=O)Nc3cc(Cl)cc(NS(C)(=O)=O)c3)c2)c1 [Example 435]
Reply: lo

Task item: Please answer likewise for CS(=O)(=O)Nc1cc(Cl)cc(NC(=O)c2cc(C3CC3)n(-c3ncc(F)cn3)c2)c1 [Example 451]
Reply: med

Task item: Please answer likewise for Cc1sc(C(=O)Nc2cc(Cl)cc(NS(=O)(=O)CCO)c2)cc1-c1ncc(N2CC(C(F)(F)F)C2)cc1F [Example 529]
Reply: hi

Task item: Please answer likewise for Cc1sc(C(=O)Nc2cc(Cl)cc(NS(C)(=O)=O)c2)cc1-c1ccc(N2CC(F)(F)C2)cn1 [Example 533]
Reply: lo

Task item: Please answer likewise for CS(=O)(=O)Nc1cc(F)cc(NC(=O)c2cnn(-c3ccccc3OCc3ccccc3)c2)c1 [Example 430]
Reply: hi

Task item: Please answer likewise for CS(=O)(=O)Nc1cc(Cl)cc(NC(=O)c2cc3c(s2)CCC3Oc2cccnc2)c1 (stereo not drawn) [Example 687]
Reply: hi

Task item: Please answer likewise for Cc1ncccc1-c1cc(F)cnc1-c1cc(C(=O)Nc2cc(Cl)cc(NS(C)(=O)=O)c2)sc1C [Example 608]
Reply: lo

Task item: Please answer likewise for CN1CC(Oc2cnc(-c3cc(C(=O)Nc4cc(Cl)cc(NS(C)(=O)=O)c4)cn3CC(F)(F)F)nc2)C1 [Example 613]
Reply: lo

Task item: Please answer likewise for Cn1cc(C(=O)Nc2cc(Cl)cc(NS(C)(=O)=O)c2)cc1-c1ncc(N2CC(F)(F)C2)cn1 [Example 597]
Reply: med

Task item: Please answer likewise for CS(=O)(=O)Nc1cc(Cl)cc(NC(=O)c2cnn([C@@H]3CCCC[C@@H]3O)c2)c1 (relative stereo) [Example 153]
Reply: hi

Task item: Please answer likewise for CCS(=O)(=O)Nc1cc(Cl)cc(NC(=O)c2cc(-c3ncc(F)cn3)cs2)c1 [Example 343]
Reply: med

Task item: Please answer likewise for Cn1cc(C(=O)Nc2cc(Cl)cc(NS(C)(=O)=O)c2)cc1-c1ncc(OC2CN(CC(F)F)C2)cc1F [Example 614]
Reply: med

Task item: Please answer likewise for Cc1cc(C(=O)Nc2cc(Cl)cc(NS(C)(=O)=O)c2)cn1-c1ncc(F)cc1F [Example 444]
Reply: med

* * *

SYSTEM_UNDER_TEST: Human recombinant DHX9 protein (Homo sapiens (Human))
ASSAY_EXPLANATION: DHX9 ATPase assay (ADP-Glo)
Type: biochemical
Give measured DHX9 Biochemical Max Inhibition for each item. Keep answers brief.
Answers are plain numbers.

Examples from the recorded data:
[[record]]
compound = "Cn1cc(C(=O)Nc2cc(Cl)cc(NS(C)(=O)=O)c2)cc1-c1ccc(N2CCN(C(=O)C3CC3)CC2)cn1 [Example 594]"
quantitative_result = 80.1

[[record]]
compound = "Cc1sc(C(=O)Nc2cc(Cl)cc(NS(C)(=O)=O)c2)cc1-c1ncc(N2CCC3(CC2)CC3)cc1F [Example 467]"
quantitative_result = 99.3

[[record]]
compound = "CS(=O)(=O)Nc1cc(Cl)cc(NC(=O)c2cnn(C3CCCC3OCc3ccccc3)c2)c1 (stereo not drawn) [Example 424]"
quantitative_result = 81.7

[[record]]
compound = "Cc1sc(C(=O)Nc2cc(Cl)cc(NS(C)(=O)=O)c2)cc1-c1ccc(N2CCN(C(=O)C3CC3)CC2)cn1 [Example 590]"
quantitative_result = 74.8

[[record]]
compound = "Cc1cc(C(=O)Nc2cc(Cl)cc(NS(C)(=O)=O)c2)cn1-c1ncc(N2CCOCC2)cc1F [Example 412]"
quantitative_result = 72.2

[[record]]
compound = "CC(C)(C)OC(=O)N1CC(n2cc(C(=O)Nc3cc(Cl)cc(NS(C)(=O)=O)c3)cc2-c2ncc(F)cn2)C1 [Example 645]"
quantitative_result = 70.8


Look up DHX9 Biochemical Max Inhibition for the entries below, preserving their order.
1. Cc1sc(C(=O)Nc2cc(Cl)cc(NS(C)(=O)=O)c2)cc1-c1ccc(C2CN(CC(F)(F)F)C2)cn1 [Example 710]
2. Cn1cc(C(=O)Nc2cc(Cl)cc(NS(C)(=O)=O)c2)cc1-c1c(F)cc(F)c[n+]1[O-] [Example 567]
3. Cn1cc(C(=O)Nc2cc(Cl)cc(NS(C)(=O)=O)c2)cc1-c1ccc(N2CC(C)(F)C2)cn1 [Example 688]
4. Cc1sc(C(=O)Nc2cc(Cl)cc(NS(C)(=O)=O)c2)cc1-c1ncc(N(C)S(C)(=O)=O)cn1 [Example 720]

Reply:
1: 69; 2: 77; 3: 67.9; 4: 72.6

Look up DHX9 Biochemical Max Inhibition for the entries below, preserving their order.
1. CS(=O)(=O)Nc1cc(Cl)cc(NC(=O)c2cnn(-c3ccc(N4CC5(COC5)C4)cc3OCc3cccc(F)c3)c2)c1 [Example 722]
2. Cc1sc(C(=O)Nc2cc(Cl)cc(NS(C)(=O)=O)c2)cc1-c1ncc(C2(O)CN(C)C2)cc1F [Example 681]
3. CS(=O)(=O)Nc1cc(Cl)cc(NC(=O)c2cnn(-c3c(F)cc(F)cc3OCc3cnco3)c2)c1 [Example 429]
4. Cc1sc(C(=O)Nc2cc(Cl)cc(NS(C)(=O)=O)c2)c(F)c1-c1ncc(OC(C)C)cn1 [Example 683]
5. COc1cnc(-n2cc(C(=O)Nc3cc(Cl)cc(NS(C)(=O)=O)c3)cc2C)nc1 [Example 441]
6. CS(=O)(=O)Nc1cc(Cl)cc(NC(=O)c2cc(-c3ncc(F)cn3)n(C3CC3)c2)c1 [Example 712]
7. Cc1cc(C(=O)Nc2cc(Cl)cc(NS(C)(=O)=O)c2)cn1-c1ncc(C(F)(F)F)cn1 [Example 426]

Reply:
74.4
77.5
59.6
62.5
72.6
74.2
74.7

Task item: Suppose we examine the compound CC(C)Oc1ccc(-c2csc(C(=O)Nc3cc(Cl)cc(NS(C)(=O)=O)c3)c2)nc1 [Example 459] ; what DHX9 Biochemical Max Inhibition value has been reported?
Reply: 65.7
